System tested: GRID2IP_2, A4D2P6
Sequence (A4D2P6 272-370): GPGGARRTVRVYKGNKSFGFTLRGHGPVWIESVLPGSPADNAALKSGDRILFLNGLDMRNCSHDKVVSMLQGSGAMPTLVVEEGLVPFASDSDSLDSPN
Method notes: holdup assay
Parameters: key: below the threshold = too weak to quantify, mostly under pKd 3.1 to 4
Test context: plain residues with an end cap or a label only (N-terminal biotin on a linker: ado-ado)
Value kind: pKd

Some binders with known pKd results, for comparison:
[
  {
    "Binder": "PDSYHRRDFW [U2AF2, P26368]",
    "pKd": "below the threshold"
  },
  {
    "Binder": "PLPPEEESWV [GAS2L2, Q8NHY3]",
    "pKd": 4.06
  },
  {
    "Binder": "DSEEELPTRL [GRK6, P43250]",
    "pKd": "below the threshold"
  },
  {
    "Binder": "DLLGGGSDSI [TNRC6B, Q9UPQ9]",
    "pKd": "below the threshold"
  },
  {
    "Binder": "ATKDKKITTV [EXOC4, Q96A65]",
    "pKd": 3.98
  }
]

Ask: Please look up its pKd: AHGSTRDQSI [KCNB1, Q14721]
Result: below the threshold

Ask: Please look up its pKd: KPDKQEEFYA [SDC3, O75056]
Result: below the threshold

Ask: Please look up its pKd: LVEEEEPMNL [HDAC7, Q8WUI4]
Result: below the threshold
